This collection of values is drawn from the supplement of paper PMC4466140.

# MEASURED ON: AgNbp2
# ASSAY OVERVIEW: SPOT peptide array binding signal intensity (averaged, normalized) (arbitrary units (background-subtracted, floor 0; scale differs between SH3 domains)); higher = stronger binding of the SH3 domain to the peptide
MEASUREMENT KIND: SPOT peptide array binding signal intensity

BINDER	CENSORING QUALIFIER	MEASURED VALUE
LEFRAILFIPKRAPF	=	558
GQYRRTIVIPRRFFT	=	56.5
RKQRSIPLSPIVPES	=	59
RTIRKLPLMSLSEYF	=	379
IAPIPMPKPNPTHIS	=	61.5
NNNKMRPHLPPLSSG	=	513
AATTSTPPLPRRRAT	≤	0
KDKSRPPRPPPKPLH	=	138
NRARYLPQNPDIIAG	≤	0
NILKRRPLKLEAPSK	=	32
KDKKTKPTPPPKPSH	≤	0
RTRRRPPPPPIPSTQ	=	2690
KKEKKPPKIPKKVYT	=	19
TEVPIPRRPPPPQAA	≤	0
ILARAILTIPRVLDK	=	279
